# System: KB-3-1
# testName: Cytotoxic Profiling of Annotated Libraries Using Quantitative High-Throughput Screening (AID 1296008); also: % is scaled to controls: 0 for no effect and ±100 for the full control effect; nearly all actives have a fitted effect of over 60% in size
# studyConditions: Five cell lines viability, CellTiter-Glo ATP luminescence, 48-72 h; stronger effect = lower value
Inconclusive results are not listed.
assayReadout: max response (%)
Answers are plain numbers, in %.

compound=C=C1C[C@@H]2[C@H](CC[C@]3(C)C(=O)CC[C@@H]23)[C@@]2(C)C=CC(=O)C=C12 assayreadout="max response" u=% obsvalue=-16.4
compound=CCOC(=O)C1(c2ccccc2)CCN(CCC(C#N)(c2ccccc2)c2ccccc2)CC1 assayreadout="max response" u=% obsvalue=-29
compound=Cc1cccc(C)c1NC1=NCCCS1 assayreadout="max response" u=% obsvalue=-1.86
compound=N[C@@H]1C[C@H]1c1ccccc1 assayreadout="max response" u=% obsvalue=-0.335
compound="O=C1NCN(c2ccccc2)C12CCN(CC1COc3ccccc3O1)CC2 (stereo unspecified)" assayreadout="max response" u=% obsvalue=-9.57

Please go through the list and note max response for each compound.
1. CN(C)CCN(C)CCc1ccc(Cl)c(Cl)c1
2. Cc1ccc(-c2nc3ccc(C)cn3c2CC(=O)N(C)C)cc1
3. O=C(O)c1ccc2[nH]cc(CCCCN3CC=C(c4ccccc4)CC3)c2c1
4. CCN(CC)C(=O)N[C@@H]1C=C2c3cccc4[nH]cc(c34)C[C@@H]2N(C)C1
5. NN=C(N)N
6. c1ccc2c(c1)OCC(C1=NCCN1)O2 (stereo unspecified)

Output:
1: 0.794; 2: 2.97; 3: -2.41; 4: -10.6; 5: 8.75; 6: 29.1

----------
# testName: Cytotoxicity counterscreen for inhibitors of SARS-CoV-2 cell entry (AID 1645845); also: nearly all actives have a fitted effect of over 50% in size
# studyConditions: cell viability (SARS-CoV-2 entry assay cells); series mostly up to 57.1 µM
Results filed as inconclusive are left out. Activity calls are given as the source filed them. The call rests on the fitted dose curve.
Choose the fitting class; nothing outside T (active), F (inactive) is accepted.

Task: Record request — test call for CN(C)CCCN1c2ccccc2Sc2ccc(Cl)cc21
Output: F

Task: What was the test verdict on Cn1cc(C2=C(c3cn(C4CCN(Cc5ccccn5)CC4)c4ccccc34)C(=O)NC2=O)c2ccccc21 ?
Output: F

Task: Hi team, can someone confirm the assay call for N[C@@H]1CONC1=O ?
Output: F

Task: Tell me the assay call for CCCCc1oc2ccccc2c1C(=O)c1cc(I)c(OCCN(CC)CC)c(I)c1 please.
Output: F

Task: Entry O=c1[nH]cc(F)c(=O)[nH]1 : call = ?
Output: F

Task: So what was the verdict on CC(CN(C)C)CN1c2ccccc2CCc2ccccc21 (stereo unspecified) in this test?
Output: F

Task: Which outcome was entered for the compound Cc1cccc(C)c1NC(=O)CN1CCCC1=O in this test?
Output: F

Task: Tell me the assay call for CN(C)CC/C=C1\c2ccccc2COc2ccccc21 please.
Output: F

Task: Field: outcome | Entry: O=P1(NCCCl)OCCCN1CCCl (stereo unspecified)
Output: F

Task: Record request — test call for CC(=O)Nc1nnc(S(N)(=O)=O)s1
Output: F

Task: Outcome? O=c1n(CCCN2CCN(c3cccc(Cl)c3)CC2)nc2ccccn12
Output: F

Task: Kindly provide the recorded test outcome for the following compound: NC(=O)c1cn(Cc2c(F)cccc2F)nn1
Output: F

Task: So what was the verdict on Cc1cnc(C(=O)NCCc2ccc(S(=O)(=O)NC(=O)NC3CCCCC3)cc2)cn1 in this test?
Output: F

Task: Test call, this compound: CC(=O)O[C@@]12CO[C@@H]1C[C@H](O)[C@@]1(C)C(=O)[C@H](O)C3=C(C)[C@@H](OC(=O)[C@H](O)[C@@H](NC(=O)OC(C)(C)C)c4ccccc4)C[C@@](O)([C@@H](OC(=O)c4ccccc4)[C@H]21)C3(C)C
Output: T

Task: What is the recorded call for this compound in the test? C[C@@H](c1ncncc1F)C(O)(Cn1cncn1)c1ccc(F)cc1F (stereo partly specified)
Output: F

Task: Could you please tell me the result logged for COc1ccc(-c2cc(=S)ss2)cc1 in this assay?
Output: F
